- experimentalSystem: full-length beta-Catenin (Uniprot ID P35222) (Homo sapiens)
- Construct: 10 nM full-length beta-Catenin (Uniprot ID P35222)
- Sequence (P35222 whole entry): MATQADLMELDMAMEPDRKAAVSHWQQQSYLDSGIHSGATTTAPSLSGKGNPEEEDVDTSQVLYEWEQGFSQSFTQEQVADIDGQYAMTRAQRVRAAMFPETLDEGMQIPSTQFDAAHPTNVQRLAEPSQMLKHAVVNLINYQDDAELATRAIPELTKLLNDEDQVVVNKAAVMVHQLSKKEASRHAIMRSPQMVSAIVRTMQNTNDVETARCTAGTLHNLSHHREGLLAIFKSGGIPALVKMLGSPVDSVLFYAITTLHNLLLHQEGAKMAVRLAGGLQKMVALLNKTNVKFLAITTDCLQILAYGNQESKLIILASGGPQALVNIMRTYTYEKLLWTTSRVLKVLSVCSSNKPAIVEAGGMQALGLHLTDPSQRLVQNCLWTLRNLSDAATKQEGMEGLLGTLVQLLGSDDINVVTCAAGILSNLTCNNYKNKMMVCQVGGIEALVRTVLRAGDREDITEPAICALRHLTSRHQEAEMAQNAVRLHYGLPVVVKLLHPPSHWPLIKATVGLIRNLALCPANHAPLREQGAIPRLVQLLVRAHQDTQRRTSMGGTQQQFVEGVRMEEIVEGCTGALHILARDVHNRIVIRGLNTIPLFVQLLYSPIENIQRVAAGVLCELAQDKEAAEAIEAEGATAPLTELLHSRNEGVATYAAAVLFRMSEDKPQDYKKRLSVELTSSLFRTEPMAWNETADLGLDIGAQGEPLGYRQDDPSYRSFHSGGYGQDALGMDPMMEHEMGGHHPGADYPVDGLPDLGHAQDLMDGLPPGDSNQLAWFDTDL
- assayText: Fluorescence polarization IC50 (beta-catenin / 5FAM-TCF4 10-53 competition)
- Format: binding
- experimentalSetup: read-out: beta-Catenin FP IC50
pIC50: −log10 of the molar value.
Each entry below carries its recorded pIC50.
resultType: pIC50

>>> measuredresult("CC(=O)N1CCC[C@]12CC=CCCCC1(CCCC=CCCCOC(=O)N3CC[C@@](C(=O)N[C@@H](Cc4ccccc4Cl)C(=O)N[C@@H](Cc4csc5ccccc45)C(=O)N[C@@H](CCC(N)=O)C(N)=O)(C3)NC(=O)[C@H](CC(N)=O)NC(=O)[C@H](Cc3ccccc3)NC(=O)[C@H](CCCCN)NC(=O)[C@H](C)NC(=O)[C@H](CN(CC(=O)O)CC(F)(F)F)NC(=O)[C@H](CC(=O)O)NC1=O)NC(=O)[C@H](CC(C)(C)C)NC(=O)[C@H](CC(=O)O)NC2=O (stereo partly drawn)")
8.30
>>> measuredresult("CC(=O)N1CCC[C@]12CC=CCCCC1(CCCC=CCCCOC(=O)N3CC[C@@](C(=O)N[C@@H](Cc4ccsc4)C(=O)N[C@@H](Cc4csc5ccccc45)C(=O)N[C@@H](CCC(N)=O)C(N)=O)(C3)NC(=O)[C@H](CC(N)=O)NC(=O)[C@H](Cc3ccccc3)NC(=O)[C@H](C)NC(=O)[C@H](C)NC(=O)[C@H](Cc3c[nH]cn3)NC(=O)[C@H](CC(=O)O)NC1=O)NC(=O)[C@H](CC(C)(C)C)NC(=O)[C@H](CC(=O)O)NC2=O (stereo partly drawn)")
7.92
>>> measuredresult("CCN(CC(=O)O)C[C@@H]1NC(=O)[C@H](CC(=O)O)NC(=O)C2(CCCC=CCCCOC(=O)N3CC[C@@](C(=O)N[C@@H](Cc4ccsc4)C(=O)N[C@@H](Cc4csc5ccccc45)C(=O)N[C@@H](CCC(N)=O)C(N)=O)(C3)NC(=O)[C@H](CO)NC(=O)[C@H](Cc3ccccc3)NC(=O)[C@H](C)NC(=O)[C@H](C)NC1=O)CCCC=CC[C@]1(CCCN1C(C)=O)C(=O)N[C@@H](CC(=O)O)C(=O)N[C@@H](CC(C)(C)C)C(=O)N2 (stereo partly drawn) [I-967]")
5.76
>>> measuredresult("CC(=O)N1CCC[C@]12CC=CCCCC1(CCCC=CCCCOC(=O)N3CC[C@@](C(=O)N[C@@H](Cc4ccsc4)C(=O)N[C@@H](Cc4csc5ccccc45)C(=O)N[C@@H](CCC(N)=O)C(=O)O)(C3)NC(=O)[C@H](CC(N)=O)NC(=O)[C@H](Cc3ccccc3)NC(=O)[C@H](C)NC(=O)[C@H](C)NC(=O)[C@H](CC(=O)O)NC(=O)[C@H](CC(=O)O)NC1=O)NC(=O)[C@H](CC(C)(C)C)NC(=O)[C@H](CC(=O)O)NC2=O (stereo partly drawn)")
8.30
>>> measuredresult("CC(=O)N1CCC[C@]12CC=CCCCC1(CCCC=CCCCOC(=O)N3CC[C@@](C(=O)N[C@@H](CC(=O)O)C(=O)N[C@@H](Cc4csc5ccccc45)C(=O)N[C@@H](CCC(N)=O)C(N)=O)(C3)NC(=O)[C@H](CC(N)=O)NC(=O)[C@H](Cc3ccccc3)NC(=O)[C@H](C)NC(=O)[C@H](C)NC(=O)[C@H](CN(CC(=O)O)CC(F)(F)F)NC(=O)[C@H](Cc3ccsc3)NC1=O)NC(=O)[C@H](CC(C)(C)C)NC(=O)[C@H](CC(=O)O)NC2=O (stereo partly drawn)")
5.14
>>> measuredresult("CC(=O)N1CCC[C@]12CC=CCCCC1(CCCC=CCCCOC(=O)N3CC[C@@](C(=O)N[C@@H](Cc4ccsc4)C(=O)N[C@@H](Cc4csc5ccccc45)C(=O)N[C@H](C(N)=O)[C@@H](C)O)(C3)NC(=O)[C@H](CC(N)=O)NC(=O)[C@H](Cc3ccccc3)NC(=O)[C@H](C)NC(=O)[C@H](C)NC(=O)[C@H](CN(CC(=O)O)CC(F)(F)F)NC(=O)[C@H](CC(=O)O)NC1=O)NC(=O)[C@H](CC(C)(C)C)NC(=O)[C@H](CC(=O)O)NC2=O (stereo partly drawn) [I-942]")
5.89
>>> measuredresult("CC(=O)N1CCC[C@]12CC=CCCCC1(CCCC=CCCCOC(=O)N3CC[C@@](C(=O)N[C@@H](Cc4ccsc4)C(=O)N[C@@H](Cc4csc5ccccc45)C(=O)N[C@H](C(N)=O)[C@@H](C)O)(C3)NC(=O)[C@H](CC(N)=O)NC(=O)[C@H](Cc3ccccc3)NC(=O)[C@H](C)NC(=O)[C@H](C)NC(=O)[C@H](CN(CC(=O)O)CC(F)(F)F)NC(=O)[C@H](CC(=O)O)NC1=O)NC(=O)[C@H](CC(C)(C)C)NC(=O)[C@H](CC(=O)O)NC2=O (stereo partly drawn) [I-943]")
5.70
>>> measuredresult("CC(=O)N1CCC[C@]12CC=CCCCC1(CCCC=CCCCOC(=O)N3CC[C@@](C(=O)N[C@@H](CC4CCCCC4)C(=O)N[C@@H](Cc4csc5ccccc45)C(=O)N[C@@H](CO)C(N)=O)(C3)NC(=O)[C@H](CO)NC(=O)[C@H](Cc3ccccc3)NC(=O)[C@H](C)NC(=O)[C@H](C)NC(=O)[C@H](CC(=O)O)NC(=O)[C@H](CC(=O)O)NC1=O)NC(=O)[C@H](CC(C)(C)C)NC(=O)[C@H](CC(=O)O)NC2=O (stereo partly drawn)")
7.64
>>> measuredresult("CC(=O)N1CCC[C@]12CC=CCCCC1(CCCC=CCCCOC(=O)N3CC[C@@](C(=O)N[C@@H](Cc4ccccc4F)C(=O)N[C@@H](Cc4csc5ccccc45)C(=O)N[C@@H](CO)C(N)=O)(C3)NC(=O)[C@H]([C@@H](C)O)NC(=O)[C@H](Cc3ccccc3)NC(=O)[C@H](C)NC(=O)[C@H](C)NC(=O)[C@H](CC(=O)O)NC(=O)[C@H](CC(=O)O)NC1=O)NC(=O)[C@H](CC(C)(C)C)NC(=O)[C@H](CC(=O)O)NC2=O (stereo partly drawn)")
8.00
